# System: miR-21
# method-notes: miR-21 luciferase sensor assay in Hela cells
# Type: cell-based
# test-parameters: 20 nM oligonucleotide; Hela cells; mock transfection 47
# luciferase value normalized to beta-galactosidase activity per record follows
endpoint: luciferase value normalized to beta-galactosidase activity

substance	system-tested	meas-value
AECSAETECSAEGETECSTEGEAEUSAEAEGECSTEAE (ACATCAGTCTGATAAGCTA; S-cEt/2'-MOE, phosphorothioate, chemistry not fully specified) [Compound 25072]	miR-21	86
Ae^MeCAST^MeCAGST^MeCTGASTASAGS^MeCTAe (ACATCAGTCTGATAAGCTA; all C 5-methyl, all phosphorothioate, sugars by position not given here; further chemistry not fully specified) [Compound 25071]	miR-21	63
Te^MeCASA^MeCAST^MeCAGST^MeCTGASTAAGS^MeCTAe (antisense TCAACATCAGTCTGATAAGCTA; all C 5-methyl, all phosphorothioate, sugars by position not given here; further chemistry not fully specified) [Compound 25067]	miR-21	41
TE^MeCEAEAECSAETECSAEGETECSTEGEAEUSAEAEGECSTEAE (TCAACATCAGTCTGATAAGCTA; listed as DNA, chemistry not fully specified) [Compound 25068]	miR-21	86

====

# Test system: miR-21
# method-notes: miR-21 luciferase sensor assay in Hela cells
# Assay type: cell-based
# test-parameters: 4 nM oligonucleotide; Hela cells; mock transfection 50
Strand notation (5' to 3'): a small letter for the sugar, then the base; units joined by * are phosphorothioate-linked, units joined directly phosphodiester-linked; [ ] holds rarer units or linkages, { } end groups; capitals alone tell only the bases. e = 2'-O-(2-methoxyethyl) (MOE); f = 2'-fluoro
# luciferase value normalized to beta-galactosidase activity per record follows
endpoint: luciferase value normalized to beta-galactosidase activity

substance	meas-value
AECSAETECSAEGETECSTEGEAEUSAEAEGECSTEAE (ACATCAGTCTGATAAGCTA; S-cEt/2'-MOE, phosphorothioate, chemistry not fully specified) [Compound 25072]	76
Ae^MeCAST^MeCAGST^MeCTGASTASAGS^MeCTAe (ACATCAGTCTGATAAGCTA; all C 5-methyl, all phosphorothioate, sugars by position not given here; further chemistry not fully specified) [Compound 25071]	50
TE^MeCEAEAECSAETECSAEGETECSTEGEAEUSAEAEGECSTEAE (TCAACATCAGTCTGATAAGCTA; listed as DNA, chemistry not fully specified) [Compound 25068]	64
AECSATCSAGTCSTGAUSAAGCSTAE (ACATCAGTCTGATAAGCTA; modified nucleosides coded in name, code key not given here) [Compound 25070]	99
Te^MeCASA^MeCAST^MeCAGST^MeCTGASTAAGS^MeCTAe (antisense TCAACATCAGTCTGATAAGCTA; all C 5-methyl, all phosphorothioate, sugars by position not given here; further chemistry not fully specified) [Compound 25067]	43
UECEAFAFCFAFUFCFAFGFUFCEUEGEAFUFAFAFGFCFUEAE (eU*eC*fA*fA*fC*fA*fU*fC*fA*fG*fU*eC*eU*eG*fA*fU*fA*fA*fG*fC*eU*eA) [Compound 25919, positive control, reference compound]	84

====

# Test system: miR-21
# method-notes: miR-21 luciferase sensor assay in Hela cells
# Assay type: cell-based
# test-parameters: concentration of anti-miR compound 0.6 (unit not given)
Strand notation (5' to 3'): a small letter for the sugar, then the base; units joined by * are phosphorothioate-linked, units joined directly phosphodiester-linked; [ ] holds rarer units or linkages, { } end groups; capitals alone tell only the bases. e = 2'-O-(2-methoxyethyl) (MOE); l = locked nucleic acid (LNA); k = constrained ethyl (cEt); [5mC] = 5-methylcytosine; d = 2'-deoxy (DNA)
# fold change in luciferase value relative to the mock treatment per record follows
endpoint: fold change in luciferase value relative to the mock treatment

substance	meas-value
AE^MeCSAT^MeCSAGT^MeCSTGATSAAG^MeCSTAE (antisense ACATCAGTCTGATAAGCTA; modified nucleosides coded in name, code key not given here) [Compound 25922, 25070 variant: each cytosine is a 5-methyl cytosine]	1.10
AE^MeCSAT^MeCSAGT^MeCSTGATSAAG^MeCSTAS (antisense eA*k[5mC]*dA*dT*k[5mC]*dA*dG*dT*k[5mC]*dT*dG*dA*kT*dA*dA*dG*k[5mC]*dT*kA) [Compound 25924, 25070 variant: 3'-terminal cEt nucleoside and each cytosine is a 5-methyl cytosine]	1.25
AE^MeCSAETE^MeCSAEGETE^MeCSTEGEAE^MeTSAEAEGE^MeCSTEAE (antisense eA*k[5mC]*eA*eT*k[5mC]*eA*eG*eT*k[5mC]*eT*eG*eA*kT*eA*eA*eG*k[5mC]*eT*eA; further chemistry not given here) [Compound 25116, 25070 variant: each non-bicyclic nucleoside is 2'-MOE, each cytosine 5-methyl cytosine]	0.98
AECSATCSAGTCSTGAUSAAGCSTAS (ACATCAGTCTGATAAGCTA; modified nucleosides coded in name, code key not given here) [Compound 25923, 25070 variant: 3'-terminal nucleoside is a cEt nucleoside rather than 2'-MOE nucleoside]	1.01
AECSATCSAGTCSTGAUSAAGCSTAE (ACATCAGTCTGATAAGCTA; modified nucleosides coded in name, code key not given here) [Compound 25070]	1.01
AE^MeCLAETE^MeCLAEGETE^MeCLTEGEAE^MeTLAEAEGE^MeCLTEAE (antisense eA*l[5mC]*eA*eT*l[5mC]*eA*eG*eT*l[5mC]*eT*eG*eA*lT*eA*eA*eG*l[5mC]*eT*eA) [Compound 25117, LNA variant: each non-bicyclic nucleoside is 2'-MOE, each cytosine 5-methyl cytosine]	1.15

====

# luciferase value normalized to beta-galactosidase activity per record follows
# System: miR-21
# method-notes: miR-21 luciferase sensor assay in Hela cells
# Format: cell-based
# test-parameters: .8 nM oligonucleotide; Hela cells; mock transfection 33
# Experimental: The compounds were assessed for miR-21 inhibitory activity in a luciferase assay. A microRNA luciferase sensor construct was engineered using pGL3-MCS2 (Promega). The construct was introduced into Hela cells to test the ability of anti-miR compounds to inhibit activity of miR-21. […] Day 4: Hela cells are passively lysed and luciferase activity measured using the Dual-Luciferase Reporter Assay System (Promega). […]
Strand notation (5' to 3'): a small letter for the sugar, then the base; units joined by * are phosphorothioate-linked, units joined directly phosphodiester-linked; [ ] holds rarer units or linkages, { } end groups; capitals alone tell only the bases. e = 2'-O-(2-methoxyethyl) (MOE); f = 2'-fluoro
endpoint: luciferase value normalized to beta-galactosidase activity

substance	meas-value
TE^MeCAACSATCSAGTCSTGAUSAAGCSTAE (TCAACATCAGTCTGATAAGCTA; listed as DNA, chemistry not fully specified) [Compound 25082]	89
Ae^MeCAST^MeCAGST^MeCTGASTASAGS^MeCTAe (ACATCAGTCTGATAAGCTA; all C 5-methyl, all phosphorothioate, sugars by position not given here; further chemistry not fully specified) [Compound 25071]	36
UECEAFAFCFAFUFCFAFGFUFCEUEGEAFUFAFAFGFCFUEAE (eU*eC*fA*fA*fC*fA*fU*fC*fA*fG*fU*eC*eU*eG*fA*fU*fA*fA*fG*fC*eU*eA) [Compound 25919, positive control, reference compound]	53
TE^MeCEAEAECSAETECSAEGETECSTEGEAEUSAEAEGECSTEAE (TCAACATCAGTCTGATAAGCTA; listed as DNA, chemistry not fully specified) [Compound 25068]	54
